Test: protein stability index of a GFP-peptide fusion (yeast GPS) (PSI 1-4); higher = more stable; sorted into four equal gates, so the index is relative within each strain
Conditions: doa10∆
Assign class 1 whenever protein stability index does not fall below 3; assign class 0 whenever it does.

Here are 4 sequences together with their reported answers.
>>> classassignment("GVIALGQFVTLGCTLVT [RMP1]")
"class 0"
>>> classassignment("SKEKANFLETIASTEKP [SIR4]")
"class 0"
>>> classassignment("RVQLSGKIQENIPFWKH [SRP72]")
"class 0"
>>> classassignment("VKKPHRYKPGTVALREI [HHT1]")
"class 1"

Decide: protein stability index of VSNNEANTPSIPTNPVD [SWI3] >= 3?
class 1
